# System: rat mixed hippocampal cultures
# method_notes: 3-NP neurotoxicity (neuroprotection) assay, MTT endpoint
# Assay type: cell-based
# study_conditions: 10 μM agent, 60 minutes incubation, 3 mM 3-NP, compared to 0.1% DMSO vehicle control
Entries and their % Protection vs. 3-NP values follow.
Provide a numeric answer, followed by its unit.

Reference set, count: 5
{"compound": "OC(Cn1cncn1)(Cn1cncn1)c1ccc(F)cc1F", "quantity_measured": "% Protection vs. 3-NP", "value_observed": "13.3%"}
{"compound": "Clc1ccc(COC(Cn2ccnc2)c2ccc(Cl)cc2Cl)cc1 (stereo not drawn) [ECONAZOLE NITRATE, Econazole Nitrate]", "quantity_measured": "% Protection vs. 3-NP", "value_observed": "141.2%"}
{"compound": "Clc1ccccc1C(c1ccccc1)(c1ccccc1)n1ccnc1", "quantity_measured": "% Protection vs. 3-NP", "value_observed": "12.6%"}
{"compound": "Clc1ccc(CSC(Cn2ccnc2)c2ccc(Cl)cc2Cl)cc1 (stereo not drawn) [SULCONAZOLE NITRATE, Sulconazole Nitrate]", "quantity_measured": "% Protection vs. 3-NP", "value_observed": "18.21%"}
{"compound": "Clc1ccc(COC(Cn2ccnc2)c2ccc(Cl)cc2Cl)c(Cl)c1 (stereo not drawn) [MICONAZOLE NITRATE, Miconazole Nitrate]", "quantity_measured": "% Protection vs. 3-NP", "value_observed": "81.6%"}

Now look at this entry.
For the record Cc1cccc(N(C)C(=S)Oc2ccc3ccccc3c2)c1 [TOLNAFTATE, Tolnaftate] , what value of % Protection vs. 3-NP is listed for rat mixed hippocampal cultures?
66.8%
